The measured values listed here are drawn from patent US10752588B2.

# Test Name: Microsomal stability, mouse
Reported Endpoint: Microsomal Stability: % remaining after 60 minutes

[
  {
    "Compound": "O=C(NC(c1ccc(Cl)cc1)c1ccccc1F)C1CCN(CCOc2ccccc2F)CC1 (stereo not drawn)",
    "Result": "m26%"
  },
  {
    "Compound": "Clc1ccc(C(c2ccccn2)N2CCC3(CCN(CCOc4ccccc4)CC3)C2)cc1 (single isomer, unassigned) [Compound 105a]",
    "Result": "m1%"
  },
  {
    "Compound": "COc1cccc(C(NC(=O)C2CCN(CCOc3ccccc3F)CC2)c2ccccn2)c1 (single isomer, unassigned) [Compound 22b]",
    "Result": "m12%"
  }
]
